species: Mus musculus; assay: Antagonist activity at mouse GPCR at 10 ng/L by double antibody sandwich ELISA relative to control
Please respond with reported inhibition for every item in the list.
Give bare numbers, in %.

Known inhibition results, listed for orientation:
Smiles string: C=C1[C@H]2C[C@@]3([C@@H]1OC(=O)c1ccccc1)[C@@H](CC2=O)[C@@]12[C@@H]4[C@@H]3C[C@@H]1[C@@](C)(CC[C@@H]2O)CN4CC
Test readout: inhibition
Experimental value: 37.7

Smiles string: C=C1[C@H]2C[C@@]3([C@@H]1OC(=O)/C=C/c1ccccc1)[C@@H](CC2=O)[C@@]12[C@@H]4[C@@H]3C[C@@H]1[C@@](C)(CC[C@@H]2O)CN4CC
Test readout: inhibition
Experimental value: 57.1

Smiles string: C=C1[C@H]2C[C@@]3([C@@H]1OC(C)=O)[C@@H](CC2=O)[C@@]12[C@@H](OC(C)=O)CC[C@@]4(C)CN(CC)[C@H]1[C@@H]3C[C@H]42
Test readout: inhibition
Experimental value: 65.2

Field: inhibition. Fill in for each record below.
1. C=C1[C@H]2C[C@@]3([C@@H]1O)[C@@H](C/C2=N/NS(=O)(=O)c1ccc(C)cc1)[C@@]12[C@@H]4[C@@H]3C[C@@H]1[C@@](C)(CC[C@@H]2O)CN4CC
2. C=C1[C@H]2C[C@@]3([C@@H]1OC(=O)CCC)[C@@H](CC2=O)[C@@]12[C@@H]4[C@@H]3C[C@@H]1[C@@](C)(CC[C@@H]2O)CN4CC

37.7
49.8

---

organism: Mus musculus; assay: Antagonist activity at mouse GPCR at 10 ng/L by double antibody sandwich ELISA relative to control
Please respond with reported inhibition for every item in the list.
Numbers only, in %.

Known inhibition results, listed for orientation:
Compound: C=C1[C@H]2C[C@@]3([C@@H]1O)[C@@H](C/C2=N/O)[C@@]12[C@@H]4[C@@H]3C[C@@H]1[C@@](C)(CC[C@@H]2O)CN4CC
Units label: %
inhibition: 73.3
--
Compound: C=C1[C@H]2C[C@@]3([C@@H]1OC(=O)COCC)[C@@H](CC2=O)[C@@]12[C@@H](OC(=O)COCC)CC[C@@]4(C)CN(CC)[C@H]1[C@@H]3C[C@H]42
Units label: %
inhibition: 55
--
Compound: C=C1[C@H]2C[C@@]3([C@@H]1OC(C)=O)[C@@H](CC2=O)[C@@]12[C@@H]4[C@@H]3C[C@@H]1[C@@](C)(CC[C@@H]2O)CN4CC
Units label: %
inhibition: 48.6
--
Compound: C=C1[C@H]2C[C@@]3([C@@H]1O)[C@@H](C[C@H]2O)[C@@]12[C@@H]4[C@@H]3C[C@@H]1[C@@](C)(CC[C@@H]2O)CN4CC
Units label: %
inhibition: 46.3
--
Compound: C=C1[C@H]2C[C@@]3([C@@H]1O)[C@@H](C[C@@H]2O)[C@@]12[C@@H]4[C@@H]3C[C@@H]1[C@@](C)(CC[C@@H]2O)CN4CC
Units label: %
inhibition: 39.4

Field: inhibition. Fill in for each record below.
1. CCN1C[C@]2(C)CC[C@H](O)[C@]34[C@@H]1[C@H](C[C@H]23)[C@@]12C[C@@H](C(=O)C[C@H]14)C(CO)(OC(=O)c1cccc(Cl)c1)[C@H]2O (stereo not given in full)
2. C=C1C(=O)[C@]23C[C@H]1C(=O)C[C@H]2[C@@]12C(=O)CC[C@@]4(C)CN(CC)[C@H]1[C@@H]3C[C@H]42
3. C=C1[C@H]2C[C@@]3([C@@H]1OC(=O)COC)[C@@H](CC2=O)[C@@]12[C@@H](OC(=O)COC)CC[C@@]4(C)CN(CC)[C@H]1[C@@H]3C[C@H]42
4. C=C1[C@H]2C[C@@]3([C@@H]1O)[C@@H](CC2=O)[C@@]12[C@@H]4[C@@H]3C[C@@H]1[C@@](C)(CC[C@@H]2O)CN4CC

1. 68.7
2. 34.6
3. 85.3
4. 62.8

Field: inhibition. Fill in for each record below.
1. C=C1[C@H]2C[C@@]3([C@@H]1OC(=O)CC)[C@@H](CC2=O)[C@@]12[C@@H](OC(=O)CC)CC[C@@]4(C)CN(CC)[C@H]1[C@@H]3C[C@H]42
2. C=C1[C@H]2C[C@@]3([C@@H]1OC(=O)CC)[C@@H](C/C2=N/OC(=O)CC)[C@@]12[C@@H]4[C@@H]3C[C@@H]1[C@@](C)(CC[C@@H]2O)CN4CC
3. C=C1[C@H]2C[C@@]3([C@@H]1S)[C@@H](CC2=S)[C@@]12[C@@H]4[C@@H]3C[C@@H]1[C@@](C)(CC[C@@H]2S)CN4CC
4. C=C1[C@H]2C[C@@]3([C@@H]1OC(=O)CC)[C@@H](C/C2=N/OC(=O)CC)[C@@]12[C@@H](OC(=O)CC)CC[C@@]4(C)CN(CC)[C@H]1[C@@H]3C[C@H]42

65.9
50.3
39.3
36.4

Field: inhibition. Fill in for each record below.
1. C=C1C(=O)[C@]23C[C@H]1C(=O)C[C@H]2[C@@]12[C@@H]4[C@@H]3C[C@@H]1[C@@](C)(CC[C@@H]2O)CN4CC
2. C=C1[C@H]2C[C@@]3([C@@H]1OC(=O)CCC)[C@@H](CC2=O)[C@@]12[C@@H](OC(=O)CCC)CC[C@@]4(C)CN(CC)[C@H]1[C@@H]3C[C@H]42

54.6
77.4
